target: Dipeptidyl peptidase IV (Porphyromonas gingivalis); experiment: Inhibition of Porphyromonas gingivalis N-terminal His-tagged DPP4 expressed in Escherichia coli using Gly-Pro-p-nitroanilide as substrate; conditions: read-out: IC50
Sequence (O31048 20-723 limits assumed): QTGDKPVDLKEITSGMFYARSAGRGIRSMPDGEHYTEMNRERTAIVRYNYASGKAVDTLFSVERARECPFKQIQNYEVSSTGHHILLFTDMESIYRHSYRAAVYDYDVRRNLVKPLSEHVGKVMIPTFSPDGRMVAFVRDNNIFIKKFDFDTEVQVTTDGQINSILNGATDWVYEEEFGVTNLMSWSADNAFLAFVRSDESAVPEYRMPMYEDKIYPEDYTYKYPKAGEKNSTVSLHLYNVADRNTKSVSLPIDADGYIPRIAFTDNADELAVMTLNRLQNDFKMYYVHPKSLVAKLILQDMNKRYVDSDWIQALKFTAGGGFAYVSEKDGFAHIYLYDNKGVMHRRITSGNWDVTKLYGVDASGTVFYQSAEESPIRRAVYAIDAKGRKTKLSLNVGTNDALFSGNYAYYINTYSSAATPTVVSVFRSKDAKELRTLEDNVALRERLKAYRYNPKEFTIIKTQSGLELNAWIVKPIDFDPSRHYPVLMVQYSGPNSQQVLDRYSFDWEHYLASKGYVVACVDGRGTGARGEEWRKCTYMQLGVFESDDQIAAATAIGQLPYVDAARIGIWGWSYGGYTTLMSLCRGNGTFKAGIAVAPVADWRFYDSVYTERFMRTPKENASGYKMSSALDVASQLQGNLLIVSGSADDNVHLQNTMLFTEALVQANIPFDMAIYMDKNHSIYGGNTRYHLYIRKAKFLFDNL
value-type: log10 IC50 (log10 of the value in µM)
Lab note - IC50 converted to log10 from values in µM.

Past entries and their recorded results:
NCCCCC(N)C(=O)N1CCSC1 (centres undefined) = 1.28
NC(CC(=O)N1CCN(C(c2ccc(F)cc2)c2ccc(F)cc2)CC1)C(=O)N1Cc2ccc(F)cc2C1 (centres undefined) = 1.34

For the molecule shown here, CC(C)C(N)C(=O)N1CCCC1 (centres undefined) , give the reported log10 IC50. 1.28

Entry N#C[C@@H]1C[C@H](N=[N+]=[N-])CN1C(=O)[C@@H](N)CCCCNCc1ccc2ccccc2c1 please -1.10

----------
Entries and their Ratio IC50 values follow.
experiment: Selectivity index, ratio of IC50 for human DPP4 to IC50 for Porphyromonas gingivalis N-terminal His-tagged DPP4 expressed in Escherichia coli

See these solved cases before continuing.
N#C[C@@H]1C[C@H](N=[N+]=[N-])CN1C(=O)[C@@H](N)CCCCNCc1ccc2ccccc2c1 = 7.04 to 7.1
NC(CCCCNCc1ccccc1)C(=O)N1Cc2ccccc2C1 (centres undefined) = > 4.5

Please report the recorded Ratio IC50 for NC(CC(=O)N1CCN(C(c2ccccc2)c2ccc(Cl)cc2)CC1)C(=O)N1Cc2ccc(F)cc2C1 (centres undefined) . > 5.9

Lookup N[C@@H](CCCCNC(=O)OCc1ccccc1)C(=O)N1CCCC1 0.7 to 0.71

----------
target: UniProt:O31048; experiment: Inhibition of Porphyromonas gingivalis N-terminal His-tagged DPP4 expressed in Escherichia coli using Gly-Pro-p-nitroanilide as substrate; conditions: read-out: IC50
Lab note: class by IC50, see low class = under 2 µM, middle class = from 2 µM up to 20 µM, high class = 20 µM and over

N[C@@H](CCNCc1ccc(Cl)cc1)C(=O)N1CCCCC1 = high class

Form: Item = N#C[C@@H]1CCCN1C(=O)CNC12CC3CC(CC(O)(C3)C1)C2 [VILDAGLIPTIN] ; Class = ? low class

Request: CCC(C)C(N)C(=O)N1CCCC1 (stereo not given) high class

And for N#C[C@@H]1CCCN1C(=O)[C@@H](N)CCCCNC(=O)OCc1ccccc1 ? low class

Same lookup for N#C[C@@H]1C[C@H](N=[N+]=[N-])CN1C(=O)[C@@H](N)CCCCN , please. low class

For CC[C@H](C)[C@H](N)C(=O)N1CCSC1 then? middle class

What about CC(C)[C@H](N)C(=O)N1CCCC1 ? high class

Next: N#C[C@@H]1CCCN1C(=O)[C@@H](N)CCCCN low class

What do you get for NC(CC(=O)N1CCN(C(c2ccccc2)c2ccc(Cl)cc2)CC1)C(=O)N1Cc2ccc(F)cc2C1 (stereo not given) ? middle class

What about NC(CCCCN(Cc1ccccc1)Cc1ccccc1)C(=O)N1CCCC1 (stereo not given) ? middle class

Input CC(O)C(N)C(=O)N1CCCC1 (stereo not given) high class

----------
target: Dipeptidyl peptidase IV (Porphyromonas gingivalis); assay: Inhibition of Porphyromonas gingivalis N-terminal His-tagged DPP4 expressed in Escherichia coli using Gly-Pro-p-nitroanilide as substrate; conditions: read-out: IC50
value-type: pIC50
Please treat pIC50 as minus the base-10 logarithm of the molar concentration.

NC(CCCCN(Cc1ccc2ccccc2c1)Cc1ccc2ccccc2c1)C(=O)N1CCCC1 (centres undefined) = 5.46
CNCCCCC(N)C(=O)N1CCCC1 (centres undefined) = 5.03

pIC50 of NC(CCCCNCc1ccccc1)C(=O)N1Cc2ccccc2C1 (centres undefined) on Dipeptidyl peptidase IV (Porphyromonas gingivalis)? 4.96

Also need CC(C)[C@H](N)C(=O)N1CCCC1B(O)O (some centres undefined) , thanks. 6.85

Numbers sourced from ChEMBL document CHEMBL4130390.
